Assay: log P determination by HPLC on reversed-phase column (EEC directive 79/831 Annex V.A8)
Type: physicochemical
Settings: pH 2.3; HPLC reversed-phase C18, 43° C.
Reported logP is given for each of the following molecules.
Could you respond with only the numeric value?

Known logP results, listed for orientation:
- Cn1cc(C(=O)Nc2ccccc2-c2ccc(I)cc2)c(I)n1: 3.36
- CC(C)CC(C)c1cc(F)ccc1NC(=O)c1cn(C)nc1I (centres unmarked): 3.39
- CON=C(c1ccc(-c2ccccc2NC(=O)c2cn(C)nc2I)cc1)C(F)(F)F: 3.70
- Cn1cc(C(=O)Nc2ccccc2C#CC(C)(C)C)c(I)n1: 3.79
- CC(C)CCc1ccccc1NC(=O)c1cn(C)nc1I: 3.15

Qu. Determine its reported logP: Cn1cc(C(=O)Nc2ccccc2-c2ccc(C(F)(F)F)cc2Cl)c(I)n1
Ans. 3.55

Qu. Annotate the molecule Cn1cc(C(=O)Nc2ccccc2CCC(C)(C)C)c(I)n1 with its measured logP.
Ans. 3.34

* * *

Assay: log P determination by HPLC on reversed-phase column (EEC directive 79/831 Annex V.A8)
Type: physicochemical
Settings: pH 2.3; HPLC reversed-phase C18, 43° C.
EXPERIMENTAL ENDPOINT: logP
The answer should be written as a number, with no unit following it.

The following molecules have reported results that may help.
* Cn1cc(C(=O)Nc2ccccc2-c2ccc(Br)c(Cl)c2)c(I)n1 | 3.45
* CC(=CC(C)C)c1ccccc1NC(=O)c1cn(C)nc1I | 3.62
* Cn1cc(C(=O)Nc2ccccc2-c2ccc(F)c(Cl)c2)c(I)n1 | 3.09

Qu. Could you please provide reported logP for CC(C)CC(C)c1ccccc1NC(=O)c1cn(C)nc1I (stereo not shown) ? Thanks!
Ans. 3.36

Qu. Tell me its logP given CC(CC(C)(C)C)c1ccccc1NC(=O)c1cn(C)nc1I (stereo not shown) as the entry.
Ans. 3.64

Qu. Tell me measured logP for CC(=O)N(C(=O)c1cn(C)nc1I)c1ccccc1C(C)CC(C)C (stereo not shown) please.
Ans. 3.68

Qu. Indicate its recorded logP; the molecule in question is Cn1cc(C(=O)Nc2ccccc2-c2ccc(C(F)(F)F)c(F)c2)c(I)n1
Ans. 3.23

Qu. Quickly give me recorded logP for CC1CC(C)(C)c2cccc(NC(=O)c3cn(C)nc3I)c21 (stereo not shown)
Ans. 3.27

Qu. Fill in reported logP for this entry: Cn1cc(C(=O)Nc2ccccc2-c2ccc(Cl)c(Cl)c2)c(I)n1
Ans. 3.38

Qu. Query logP for Cn1cc(C(=O)Nc2ccccc2-c2cccc(Cl)c2F)c(I)n1
Ans. 2.99

Qu. Provide measured logP value, entry: CCCON=Cc1ccc(-c2ccccc2NC(=O)c2cn(C)nc2I)cc1F
Ans. 4.00

Qu. For the molecule Cn1cc(C(=O)Nc2ccccc2-c2ccc(Br)cc2Cl)c(I)n1 , give its measured logP value.
Ans. 3.56

Qu. Give reported logP value for C=C(CC(C)(C)C)c1ccccc1NC(=O)c1cn(C)nc1I
Ans. 3.82

Qu. Identify logP associated with the molecule C=C(c1ccccc1NC(=O)c1cn(C)nc1I)C(C)C
Ans. 3.28

Qu. Tell us which logP value is on record for Cn1cc(C(=O)Nc2ccccc2-c2ccc(Br)cc2)c(I)n1
Ans. 3.20

Qu. For the molecule Cn1cc(C(=O)Nc2ccccc2-c2ccc(Cl)c(F)c2)c(I)n1 , report logP.
Ans. 3.09

Qu. Answer with the recorded logP for the molecule listed here: Cn1cc(C(=O)Nc2ccccc2-c2ccc(C(F)(F)F)cc2)c(I)n1
Ans. 3.24

Qu. Report logP for C=C(C)CC(C)(O)c1ccccc1NC(=O)c1cn(C)nc1I (stereo not shown)
Ans. 2.54

Qu. Quote logP reported for Cn1cc(C(=O)Nc2ccccc2-c2cccc(Cl)c2Cl)c(I)n1 please.
Ans. 3.34
